The reported numbers originate from patent US20220089612A1.

PRMT5:MEP50 (Homo sapiens): reported IC50 for various compounds.

Some solved cases for reference:
>>> print(df.to_string())
                                   compound  measured_quantity     reported
0  Nc1ncnc2c1ccn2[C@@H]1C[C@H](CCc2ccc3cc4nn[nH]c4nc3c2)[C@@H](O)[C@H]1O [Compound 1-19]               IC50  1 to 100 nM
1  C[C@@H]1CCc2cc3ccc(CC[C@H]4C[C@@H](n5ccc6c(N)ncnc65)[C@H](O)[C@@H]4O)cc3nc2N1 [Compound 1-37]               IC50       < 1 nM
2  Nc1ncnc2c1ccn2[C@@H]1C[C@H](CCc2ccc3cc4c(nc3c2)N[C@H](CC2CC2)C4)[C@@H](O)[C@H]1O [Compound 1-29]               IC50  1 to 100 nM

Turning now to a further compound:
Query string: Please report the measured IC50 for C[C@@H]1Cc2cc3ccc(CC[C@H]4C[C@@H](n5ccc6c(N)ncnc65)[C@H](O)[C@@H]4O)cc3nc2N1 [Compound 1-21]
Result string: < 1 nM

----------
biological target: PRMT5:MEP50 (Homo sapiens, UniProt O14744)
Sequence (O14744 whole entry, species assumed): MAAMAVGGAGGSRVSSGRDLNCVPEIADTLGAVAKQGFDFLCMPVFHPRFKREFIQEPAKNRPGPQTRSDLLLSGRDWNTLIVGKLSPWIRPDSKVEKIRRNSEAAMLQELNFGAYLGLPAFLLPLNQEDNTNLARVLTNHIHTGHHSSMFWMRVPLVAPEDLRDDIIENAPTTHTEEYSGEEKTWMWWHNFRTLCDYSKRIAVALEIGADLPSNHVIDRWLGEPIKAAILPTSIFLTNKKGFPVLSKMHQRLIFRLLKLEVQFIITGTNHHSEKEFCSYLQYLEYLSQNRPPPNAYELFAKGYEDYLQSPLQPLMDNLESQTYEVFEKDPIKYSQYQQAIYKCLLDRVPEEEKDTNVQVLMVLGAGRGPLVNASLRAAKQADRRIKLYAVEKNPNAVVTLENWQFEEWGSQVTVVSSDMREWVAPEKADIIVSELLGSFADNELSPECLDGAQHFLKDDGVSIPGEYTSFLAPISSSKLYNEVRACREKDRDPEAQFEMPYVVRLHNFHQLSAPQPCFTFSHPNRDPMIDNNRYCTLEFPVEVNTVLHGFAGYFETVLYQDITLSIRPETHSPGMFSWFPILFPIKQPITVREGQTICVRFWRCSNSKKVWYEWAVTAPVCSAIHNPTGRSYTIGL
Sequence (Q9BQA1 whole entry partner, species assumed): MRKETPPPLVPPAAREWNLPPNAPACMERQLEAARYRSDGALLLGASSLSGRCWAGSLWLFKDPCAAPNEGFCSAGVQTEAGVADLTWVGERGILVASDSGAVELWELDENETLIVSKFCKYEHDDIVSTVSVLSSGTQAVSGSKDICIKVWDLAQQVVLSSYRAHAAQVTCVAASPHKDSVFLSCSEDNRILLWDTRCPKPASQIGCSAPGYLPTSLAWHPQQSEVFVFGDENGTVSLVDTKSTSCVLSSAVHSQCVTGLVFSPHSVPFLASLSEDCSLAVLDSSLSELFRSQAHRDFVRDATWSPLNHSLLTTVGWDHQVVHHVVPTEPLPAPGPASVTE
pIC50: −log10 of the molar value.
I'd appreciate it if you could supply pIC50 values for the items below.

Some solved cases for reference:
                                   molecule  measured_quantity  reported
0  Nc1ncnc2c1ccn2[C@@H]1C[C@H](CCc2ccc3cc4c(nc3c2)NCC4)[C@@H](O)[C@H]1O              pIC50    > 9.00
1  Nc1ncnc2c1ccn2[C@@H]1C[C@H](CCc2ccc3cc4c(nc3c2)N[C@H](C2CC2)CC4)[C@@H](O)[C@H]1O              pIC50    > 9.00
2  Nc1ncnc2c1ccn2[C@@H]1C[C@H](CCc2ccc3cc4nc[nH]c4nc3c2)[C@@H](O)[C@H]1O              pIC50    > 9.00

Could I get pIC50 for every one of these entries?
1. NC1=Nc2cc(CC[C@H]3C[C@@H](n4ccc5c(N)ncnc54)[C@H](O)[C@@H]3O)ccc2[C@H]2C[C@@H]12 (single isomer, unassigned)
2. C[C@H]1CCc2cc3ccc(CC[C@H]4C[C@@H](n5ccc6c(N)ncnc65)[C@H](O)[C@@H]4O)cc3nc2N1
3. Nc1ncnc2c1ccn2[C@@H]1C[C@H](CCc2ccc3cc4cn[nH]c4nc3c2)[C@@H](O)[C@H]1O

Result string:
> 9.00
> 9.00
7.00 to 9.00

----------
target: PRMT5:MEP50 (Homo sapiens, UniProt O14744)
measured quantity: IC50

Some solved cases for reference:
>>> df
                         compound_structure  reported
0  Nc1ncnc2c1ccn2[C@@H]1C[C@H](CCc2ccc3cc4c(nc3c2)NCCC4)[C@@H](O)[C@H]1O    < 1 nM
1  CC(C)(C)[C@@H]1Cc2cc3ccc(CC[C@H]4C[C@@H](n5ccc6c(N)ncnc65)[C@H](O)[C@@H]4O)cc3nc2N1    < 1 nM

Could I get IC50 for every one of these entries?
1. C[C@@H]1Cc2cc3ccc(CC[C@H]4C[C@@H](n5ccc6c(N)ncnc65)[C@H](O)[C@@H]4O)cc3nc2NO1
2. Nc1ncnc2c1ccn2[C@@H]1C[C@H](CCc2ccc3cc4c(nc3c2)NOCCC4)[C@@H](O)[C@H]1O
3. Nc1ncnc2c1ccn2[C@@H]1C[C@H](CCc2ccc3cc4c(nc3c2)NC2(CC2)C4)[C@@H](O)[C@H]1O
4. Nc1ncnc2c1ccn2[C@@H]1O[C@H](CCc2ccc3cc4c(nc3c2)NCC4)[C@@H](O)[C@H]1O
5. C=CC[C@@H]1Cc2cc3ccc(CC[C@H]4C[C@@H](n5ccc6c(N)ncnc65)[C@H](O)[C@@H]4O)cc3nc2N1

Result string:
1. < 1 nM
2. 1 to 100 nM
3. < 1 nM
4. 1 to 100 nM
5. < 1 nM
